- systemName: AHR (Mus musculus)
- Sequence (P30561 1-848 P471L/N533S/M589L): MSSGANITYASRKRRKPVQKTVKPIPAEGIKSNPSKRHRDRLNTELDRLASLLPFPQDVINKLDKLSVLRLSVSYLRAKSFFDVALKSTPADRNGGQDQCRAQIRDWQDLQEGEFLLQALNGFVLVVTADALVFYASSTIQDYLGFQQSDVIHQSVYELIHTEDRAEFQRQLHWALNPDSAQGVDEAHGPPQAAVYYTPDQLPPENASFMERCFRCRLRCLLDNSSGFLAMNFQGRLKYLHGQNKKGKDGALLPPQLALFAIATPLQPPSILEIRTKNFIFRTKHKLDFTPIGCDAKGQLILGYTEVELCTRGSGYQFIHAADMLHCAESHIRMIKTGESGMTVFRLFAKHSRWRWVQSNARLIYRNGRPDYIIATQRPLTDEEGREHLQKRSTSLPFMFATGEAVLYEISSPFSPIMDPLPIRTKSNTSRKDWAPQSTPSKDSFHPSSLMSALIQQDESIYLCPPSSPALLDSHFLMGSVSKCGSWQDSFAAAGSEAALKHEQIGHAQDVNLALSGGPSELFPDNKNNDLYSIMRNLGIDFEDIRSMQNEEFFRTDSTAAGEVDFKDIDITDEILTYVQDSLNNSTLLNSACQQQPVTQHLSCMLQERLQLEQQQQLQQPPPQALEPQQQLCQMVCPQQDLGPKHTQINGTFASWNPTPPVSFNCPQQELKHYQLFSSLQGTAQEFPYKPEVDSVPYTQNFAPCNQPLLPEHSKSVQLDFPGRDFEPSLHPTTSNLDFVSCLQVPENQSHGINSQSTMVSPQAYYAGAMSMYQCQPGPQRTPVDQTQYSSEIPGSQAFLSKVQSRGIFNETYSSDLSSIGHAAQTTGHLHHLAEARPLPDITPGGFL
- protocol: In vitro assay 3: antagonism in mouse cell line (AHR transactivation, firefly luciferase reporter, kynurenic acid prestimulated)
- Format: cell-based
- experimentalConditions: mouse Hepa 1c1c7 cells, 200 μM kynurenic acid, 20 hours, read-out: AHR Antagonism Mouse IC50
pIC50: −log10 of the molar value.
reportedMetric: pIC50

[[record]]
molecule = "O=C1NCCNC[C@H]1Nc1nc2ccccc2c2nc(-c3ccc(Br)o3)nn12 [Example 412]"
valuereported = 6.63

[[record]]
molecule = "O=C1NCCCC[C@H]1Nc1nc2ccccc2c2nc(-c3cc(Cl)ccc3OC(F)(F)F)nn12 [Example 497]"
valuereported = 7.24

[[record]]
molecule = "COc1ccc(-c2nc3c4cccc(C#N)c4nc(N[C@@H]4CCCCNC4=O)n3n2)cc1 [Example 721]"
valuereported = 7.97

[[record]]
molecule = "Cn1cc(-c2nc3c4cccc(C#N)c4nc(N[C@@H]4CCCCNC4=O)n3n2)cn1 [Example 403]"
valuereported = 7.02

[[record]]
molecule = "COc1cccc(-c2nc3c4cc(F)ccc4nc(NC4CCCNC4=O)n3n2)c1 (single isomer, unassigned) [Example 189]"
valuereported = 6.94

[[record]]
molecule = "N#Cc1cccc(-c2nc3c4ccccc4nc(N[C@@H]4CCCCNC4=O)n3n2)c1 [Example 381]"
valuereported = 8.82

[[record]]
molecule = "O=C1NCCNC[C@H]1Nc1nc2ccccc2c2nc(-c3ccc(OC4CC4)cc3)nn12 [Example 411]"
valuereported = 7.95

[[record]]
molecule = "COc1cccc(-c2nc3c4c(F)cccc4nc(N[C@H](C)C(N)=O)n3n2)c1 [Example 184]"
valuereported = 7.20

[[record]]
molecule = "O=C1NCCCC[C@H]1Nc1nc2cccc(C(F)(F)F)c2c2nc(-c3ccc(F)cc3)nn12 [Example 174]"
valuereported = 8.39

[[record]]
molecule = "CC[C@H](Nc1nc2ccccc2c2nc(-c3ccc(OC)cc3)nn12)C(N)=O [Example 434]"
valuereported = 7.12

[[record]]
molecule = "CC[C@@H](Nc1nc2c(Br)cccc2c2nc(-c3ccc(Cl)cc3OC(F)(F)F)nn12)C(N)=O [Example 573]"
valuereported = 8.86

[[record]]
molecule = "Cn1cc(-c2nc3c4cccc(Cl)c4nc(N[C@@H]4CNCCNC4=O)n3n2)cn1 [Example 253]"
valuereported = 7.43

[[record]]
molecule = "O=C1NCCC[C@H]1Nc1nc2c(Br)cccc2c2nc(-c3ccccc3OC(F)(F)F)nn12 [Example 220]"
valuereported = 8.17

[[record]]
molecule = "Cn1cc(-c2nc3c4cccc(C(F)(F)F)c4nc(N[C@H]4CCCCNC4=O)n3n2)cn1 [Example 584]"
valuereported = 6.82

[[record]]
molecule = "O=C1NCCCC[C@H]1Nc1nc2c(C(F)(F)F)cccc2c2nc(-c3cnn(C4CC4)c3)nn12 [Example 676]"
valuereported = 8.71

[[record]]
molecule = "CCCNC(=O)[C@@H](C)Nc1nc2ccccc2c2nc(-c3cc(F)ccc3OC(F)(F)F)nn12 [Example 495]"
valuereported = 7.88


###

Each entry below carries its recorded IC50.
- systemName: AHR (Homo sapiens, UniProt P35869)
- Construct: U87 MG glioblastoma cells (ATCC #HTB-14) endogenously expressing AHR; endogenous in cells; host or cells: U87 MG glioblastoma cells (ATCC #HTB-14)
- Sequence (P35869 11-848): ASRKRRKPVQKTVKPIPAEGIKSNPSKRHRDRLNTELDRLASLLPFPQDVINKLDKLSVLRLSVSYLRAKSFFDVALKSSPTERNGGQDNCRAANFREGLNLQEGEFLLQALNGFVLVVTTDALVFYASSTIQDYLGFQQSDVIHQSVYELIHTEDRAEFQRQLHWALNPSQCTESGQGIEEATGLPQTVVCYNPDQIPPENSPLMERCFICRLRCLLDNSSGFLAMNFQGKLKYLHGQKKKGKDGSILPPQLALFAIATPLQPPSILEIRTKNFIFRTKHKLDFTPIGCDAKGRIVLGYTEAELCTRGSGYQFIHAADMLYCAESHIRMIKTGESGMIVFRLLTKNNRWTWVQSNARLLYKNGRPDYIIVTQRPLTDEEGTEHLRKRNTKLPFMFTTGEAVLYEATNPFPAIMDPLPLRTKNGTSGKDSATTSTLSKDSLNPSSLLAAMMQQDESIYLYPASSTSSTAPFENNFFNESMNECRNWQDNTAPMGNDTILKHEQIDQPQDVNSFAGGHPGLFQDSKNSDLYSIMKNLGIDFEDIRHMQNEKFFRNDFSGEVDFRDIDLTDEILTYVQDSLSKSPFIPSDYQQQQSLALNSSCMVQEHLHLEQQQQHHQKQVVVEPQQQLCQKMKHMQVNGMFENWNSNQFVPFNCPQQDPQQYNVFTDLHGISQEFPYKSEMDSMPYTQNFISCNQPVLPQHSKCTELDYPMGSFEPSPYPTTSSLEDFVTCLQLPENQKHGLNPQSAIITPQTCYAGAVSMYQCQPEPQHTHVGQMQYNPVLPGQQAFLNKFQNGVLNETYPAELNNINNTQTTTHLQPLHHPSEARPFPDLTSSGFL
- protocol: In vitro assay 1: antagonism in human cell line (AHR transactivation, firefly luciferase reporter, kynurenic acid prestimulated)
- Format: cell-based
- experimentalConditions: AHR Antagonism Human IC50 [M], firefly luciferase reporter
reportedMetric: IC50 (M)

[[record]]
molecule = "COc1ccc(-c2nc3c4cccc(Br)c4nc(N[C@H](C)C(=O)NCCN4CCNCC4)n3n2)cc1 [Example 992]"
reportedmetric = "IC50"
measureunit = "M"
valuereported = "3.94e-09"

[[record]]
molecule = "Cc1c(-c2nc3c4cccc(F)c4nc(N[C@@H]4CNCCNC4=O)n3n2)cnn1C [Example 969]"
reportedmetric = "IC50"
measureunit = "M"
valuereported = "6.3e-07"

[[record]]
molecule = "COc1ccc(-c2nc3c4cccc(Br)c4nc(N[C@H](C)C(=O)O)n3n2)cc1 [Example 870]"
reportedmetric = "IC50"
measureunit = "M"
valuereported = "1.09e-08"

[[record]]
molecule = "COc1ccc(-c2nc3c4cccc(N5CCCC5=O)c4nc(N[C@@H]4CCCCNC4=O)n3n2)cc1 [Example 1001]"
reportedmetric = "IC50"
measureunit = "M"
valuereported = "3.54e-07"

[[record]]
molecule = "CCCCNC(=O)[C@@H](C)Nc1nc2c(Br)cccc2c2nc(-c3cnn(C)c3)nn12 [Example 794]"
reportedmetric = "IC50"
measureunit = "M"
valuereported = "1.76e-08"

[[record]]
molecule = "COc1ccc(-c2nc3c4cccc(Br)c4nc(N[C@@H]4CS(=O)(=O)CCNC4=O)n3n2)cc1 [Example 851]"
reportedmetric = "IC50"
measureunit = "M"
valuereported = "9.17e-10"

[[record]]
molecule = "Cc1nn(C)cc1-c1nc2c3cccc(C(F)(F)F)c3nc(N[C@H]3CNCCNC3=O)n2n1 [Example 948]"
reportedmetric = "IC50"
measureunit = "M"
valuereported = "2.08e-08"

[[record]]
molecule = "O=C1NCCNC[C@H]1Nc1nc2c(C(F)(F)F)cccc2c2nc(-c3cnn(C4CC4)c3)nn12 [Example 963]"
reportedmetric = "IC50"
measureunit = "M"
valuereported = "1.76e-09"

[[record]]
molecule = "Cn1cc(-c2nc3c4cccc(Br)c4nc(N[C@H]4CSCCNC4=O)n3n2)cn1 [Example 841]"
reportedmetric = "IC50"
measureunit = "M"
valuereported = "1.82e-09"

[[record]]
molecule = "COc1ccc(-c2nc3c4ccccc4nc(N[C@H](C)C(=O)NCCN(C)C)n3n2)cc1 [Example 787]"
reportedmetric = "IC50"
measureunit = "M"
valuereported = "2.26e-08"

[[record]]
molecule = "CN(C)c1cccc2c1nc(N[C@@H]1CCCCNC1=O)n1nc(-c3cnn(C)c3)nc21 [Example 828]"
reportedmetric = "IC50"
measureunit = "M"
valuereported = "1.78e-07"

[[record]]
molecule = "CCn1cc(-c2nc3c4cccc(C(F)(F)F)c4nc(N[C@H]4CNCCNC4=O)n3n2)c(C)n1 [Example 949]"
reportedmetric = "IC50"
measureunit = "M"
valuereported = "4.4e-09"

[[record]]
molecule = "COc1ccc(-c2nc3c4cccc(OCCC(C)(C)OC)c4nc(N[C@@H]4CCCCNC4=O)n3n2)cc1 [Example 996]"
reportedmetric = "IC50"
measureunit = "M"
valuereported = "2.8e-07"

[[record]]
molecule = "COc1ccc(-c2nc3c4ccccc4nc(N[C@H](C)C(=O)N4CCN(C(=O)OC(C)(C)C)CC4)n3n2)cc1 [Example 882]"
reportedmetric = "IC50"
measureunit = "M"
valuereported = "5.91e-09"

[[record]]
molecule = "CCn1cc(-c2nc3c4cccc(Cl)c4nc(N[C@@H]4CNCCNC4=O)n3n2)c(C)n1 [Example 958]"
reportedmetric = "IC50"
measureunit = "M"
valuereported = "1.9e-09"

[[record]]
molecule = "CCCNC(=O)[C@H](C)Nc1nc2c(Br)cccc2c2nc(-c3cnn(C)c3)nn12 [Example 795]"
reportedmetric = "IC50"
measureunit = "M"
valuereported = "2.46e-07"

[[record]]
molecule = "COC(=O)N1CCN(C(=O)[C@@H](C)Nc2nc3c(Br)cccc3c3nc(-c4ccc(OC)cc4)nn23)CC1 [Example 894]"
reportedmetric = "IC50"
measureunit = "M"
valuereported = "2.01e-09"

[[record]]
molecule = "COC(=O)N1CCN(C(=O)[C@@H](C)Nc2nc3c(Br)cccc3c3nc(-c4cnn(C)c4)nn23)CC1 [Example 893]"
reportedmetric = "IC50"
measureunit = "M"
valuereported = "2.65e-08"

[[record]]
molecule = "COc1ccc(-c2nc3c4cccc(CO)c4nc(N[C@@H]4CCCCNC4=O)n3n2)cc1 [Example 860]"
reportedmetric = "IC50"
measureunit = "M"
valuereported = "9.26e-10"

[[record]]
molecule = "O=C1NCCNC[C@H]1Nc1nc2c(Br)cccc2c2nc(-c3cnn(CC4CC4)c3)nn12 [Example 968]"
reportedmetric = "IC50"
measureunit = "M"
valuereported = "6.97e-09"

[[record]]
molecule = "CC(C)[C@@H](Nc1nc2c(Br)cccc2c2nc(-c3cnn(C)c3)nn12)C(=O)N1CCOCC1 [Example 926]"
reportedmetric = "IC50"
measureunit = "M"
valuereported = "3.45e-08"

[[record]]
molecule = "O=C1NCCCC[C@H]1Nc1nc2c(Cl)cccc2c2nc(-c3cnn(C4CC4)c3)nn12 [Example 816]"
reportedmetric = "IC50"
measureunit = "M"
valuereported = "1.05e-09"

[[record]]
molecule = "Cn1nccc1-c1nc2c3cccc(C(F)(F)F)c3nc(N[C@@H]3CCCCNC3=O)n2n1 [Example 808]"
reportedmetric = "IC50"
measureunit = "M"
valuereported = "8.12e-10"

[[record]]
molecule = "COc1ccc(-c2nc3c4cccc(Br)c4nc(N[C@@H](C(=O)NCCN4CCN(C)CC4)C(C)C)n3n2)cc1 [Example 924]"
reportedmetric = "IC50"
measureunit = "M"
valuereported = "6.71e-09"

[[record]]
molecule = "CC(C)n1cc(-c2nc3c4cccc(F)c4nc(N[C@@H]4CCCCNC4=O)n3n2)cn1 [Example 836]"
reportedmetric = "IC50"
measureunit = "M"
valuereported = "4.19e-09"

[[record]]
molecule = "C[C@@H](Nc1nc2c(Br)cccc2c2nc(-c3cnn(C)c3)nn12)C(=O)NCCN1CCN(C(=O)OC(C)(C)C)CC1 [Example 891]"
reportedmetric = "IC50"
measureunit = "M"
valuereported = "5.75e-08"

[[record]]
molecule = "C[C@@H](Nc1nc2c(Br)cccc2c2nc(-c3cnn(C)c3)nn12)C(=O)NCCN(C)C(=O)OC(C)(C)C [Example 888]"
reportedmetric = "IC50"
measureunit = "M"
valuereported = "1.73e-08"

[[record]]
molecule = "C[C@@H](Nc1nc2c(Br)cccc2c2nc(-c3cnn(C)c3)nn12)C(=O)NCCN1CCCCC1 [Example 896]"
reportedmetric = "IC50"
measureunit = "M"
valuereported = "2.72e-07"

[[record]]
molecule = "COCCN(C)C(=O)[C@@H](C)Nc1nc2c(C(F)(F)F)cccc2c2nc(-c3cnn(C)c3)nn12 [Example 878]"
reportedmetric = "IC50"
measureunit = "M"
valuereported = "2.78e-08"

[[record]]
molecule = "COc1ccc(-c2nc3c4cccc(Br)c4nc(N[C@@H]4CN(C)CCNC4=O)n3n2)cc1 [Example 995]"
reportedmetric = "IC50"
measureunit = "M"
valuereported = "6.97e-10"

